# STUDY_TARGET: HSP90 (Homo sapiens (Human))
# PROCEDURE_DETAILS: HSP90 competition binding (fluorescence polarization) assay with FITC labeled GM
# PARTICULARS: 24 hours of incubation at 4° C.
pIC50: −log10 of the molar value.
Can you tell me pIC50 for the items I'm about to list?

query: Enter reported pIC50 observed with HSP90 (Homo sapiens (Human)) for C#CCCCCn1c(Sc2cc3c(cc2I)OCO3)nc2c(N)nccc21
result: 6.00 to 7.00

query: Enter reported pIC50 observed with HSP90 (Homo sapiens (Human)) for C#CCCCn1c(Sc2cc(O)c(O)cc2I)nc2c(N)nccc21
result: < 5.00

query: Enter reported pIC50 observed with HSP90 (Homo sapiens (Human)) for C#CCCCn1c(Sc2cc(OC)ccc2C(C)=O)nc2c(N)nccc21
result: 5.00 to 6.00

query: Enter reported pIC50 observed with HSP90 (Homo sapiens (Human)) for CC(=O)NCCCCn1c(Sc2cc3c(cc2I)OCO3)nc2c(N)nccc21
result: 6.00 to 7.00

query: Enter reported pIC50 observed with HSP90 (Homo sapiens (Human)) for C#CCCCn1c(Sc2cc3c(cc2I)OCO3)nc2c(N)nccc21
result: > 7.00

query: Enter reported pIC50 observed with HSP90 (Homo sapiens (Human)) for CC(C)NCCCn1c(Sc2cc3c(cc2Br)OCO3)nc2c(N)nccc21
result: 5.00 to 6.00

query: Enter reported pIC50 observed with HSP90 (Homo sapiens (Human)) for C#CCCCn1c(Sc2cc3c(cc2Cl)OCO3)nc2c(N)nccc21
result: 6.00 to 7.00

query: Enter reported pIC50 observed with HSP90 (Homo sapiens (Human)) for C#CCCn1c(Sc2cc3c(cc2Br)OCO3)nc2c(N)nccc21
result: 5.00 to 6.00

query: Enter reported pIC50 observed with HSP90 (Homo sapiens (Human)) for CC(C)OCCn1c(Sc2cc3c(cc2I)OCO3)nc2c(N)nccc21
result: 6.00 to 7.00

query: Enter reported pIC50 observed with HSP90 (Homo sapiens (Human)) for N#CCCCn1c(Sc2cc3c(cc2I)OCO3)nc2c(N)nccc21
result: 6.00 to 7.00

query: Enter reported pIC50 observed with HSP90 (Homo sapiens (Human)) for C#CCCCn1c(Sc2cc(F)c(F)cc2I)nc2c(N)nccc21
result: < 5.00

query: Enter reported pIC50 observed with HSP90 (Homo sapiens (Human)) for COc1ccc(I)c(Sc2nc3c(N)nccc3n2CCCC#N)c1
result: 5.00 to 6.00

query: Enter reported pIC50 observed with HSP90 (Homo sapiens (Human)) for N#CCCCCn1c(Sc2cc3c(cc2I)OCO3)nc2c(N)nccc21
result: 6.00 to 7.00

query: Enter reported pIC50 observed with HSP90 (Homo sapiens (Human)) for C#CCCn1c(Sc2cc3c(cc2I)OCO3)nc2c(N)nccc21
result: 6.00 to 7.00
